B1: PhoQ; a variant is named by its letters at X, in order, P23837 (parent)
chain: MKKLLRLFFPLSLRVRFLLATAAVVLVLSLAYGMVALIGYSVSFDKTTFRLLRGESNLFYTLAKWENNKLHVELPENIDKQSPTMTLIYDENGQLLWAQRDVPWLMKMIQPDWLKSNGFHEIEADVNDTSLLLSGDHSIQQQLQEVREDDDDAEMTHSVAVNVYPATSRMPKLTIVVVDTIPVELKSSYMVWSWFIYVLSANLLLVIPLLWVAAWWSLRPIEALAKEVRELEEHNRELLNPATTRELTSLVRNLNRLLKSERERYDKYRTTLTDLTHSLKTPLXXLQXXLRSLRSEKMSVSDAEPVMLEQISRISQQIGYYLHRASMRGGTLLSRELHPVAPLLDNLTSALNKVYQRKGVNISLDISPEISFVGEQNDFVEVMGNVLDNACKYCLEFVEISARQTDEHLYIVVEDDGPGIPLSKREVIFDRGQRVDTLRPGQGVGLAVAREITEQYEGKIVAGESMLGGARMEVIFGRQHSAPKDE

# Variants of: B1
# measurement.protocol: enrichment ratio after two sorts for PhoP signalling (ratio (wild type AVST 3.29)); higher = more functional
# condition.info: with PhoP (E. coli)
In all, about 140,000 sequences were measured (“enrichment ratio after two sorts for PhoP signalling”: median about 0, highest 2% from about 11 on). For the sample, the highest values were picked, then their nearest neighbours and some sequences at random.
endpoint.name: enrichment ratio

[[record]]
mutation_spec = "HYKH"
endpoint_name = "enrichment ratio"
observed = "≤ 0.25"

[[record]]
mutation_spec = "LVAW"
endpoint_name = "enrichment ratio"
observed = 0.304

[[record]]
mutation_spec = "KYMA"
endpoint_name = "enrichment ratio"
observed = "≤ 0.25"

[[record]]
mutation_spec = "NLSW"
endpoint_name = "enrichment ratio"
observed = "≤ 0.25"

[[record]]
mutation_spec = "SEGA"
endpoint_name = "enrichment ratio"
observed = 12

[[record]]
mutation_spec = "FRIN"
endpoint_name = "enrichment ratio"
observed = "≤ 0.25"


Input: Entry "SGGA" : reported enrichment ratio = ?
Output: 8.12

Input: Entry "HNLQ" : reported enrichment ratio = ?
Output: ≤ 0.25
